Cited source: paper PMC6150229

# run.conditions: male, Sprague-Dawley, rat, in vivo, po, 8 g/kg
value.type: MRT (h)
Give bare numbers, in h.

Examples with answers:
{"molecule": "Cc1cccc2c3c(ccc12)C1=C(C(=O)C3=O)[C@@H](C)CO1 [dihydrotanshinone I]", "MRT, h": 14.8}
{"molecule": "O=C1C[C@@H](c2ccc(O)cc2)Oc2cc(O)ccc21 [liquiritigenin]", "MRT, h": 9.83}
{"molecule": "C[C@H]1COC2=C1C(=O)C(=O)c1c2ccc2c1CCCC2(C)C [cryptotanshinone]", "MRT, h": 25.6}
{"molecule": "O=C1C[C@@H](c2ccc(O[C@@H]3O[C@H](CO)[C@@H](O)[C@H](O)[C@H]3O)cc2)Oc2cc(O)ccc21 [liquiritin]", "MRT, h": 10.2}

Consider now this further molecule.
Enquiry: Sample O=c1cc(-c2ccc(O)c(O)c2)oc2cc(O[C@@H]3O[C@H](CO)[C@@H](O)[C@H](O)[C@H]3O)cc(O)c12 [luteoloside] — what was its MRT?
Return: 29.4
